B1: MGC27345 (parent)
chain: KYMPHLCQDSSGEVSCQCQLHPPR

Variants of: B1
Experiment: protein stability index of a GFP-peptide fusion (GPS, HEK-293T) (PSI 1-6); higher = more stable;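 also: lentivirally expressed fusions sorted by FACS into six bins by GFP to DsRed ratio, PSI derived from sequencing read proportions per bin multiplied by bin number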
Conditions: c terminus: a fixed tail appended
Values of protein stability index greater than or equal to 2 map to 1; values below map to 0.

[
  {
    "variant_string": "Q8Y",
    "group_label": 0
  },
  {
    "variant_string": "C7H",
    "group_label": 0
  },
  {
    "variant_string": "M3V",
    "group_label": 1
  },
  {
    "variant_string": "C18K",
    "group_label": 1
  },
  {
    "variant_string": "V14P",
    "group_label": 1
  },
  {
    "variant_string": "C7A",
    "group_label": 0
  },
  {
    "variant_string": "P22T",
    "group_label": 1
  },
  {
    "variant_string": "H5E",
    "group_label": 1
  },
  {
    "variant_string": "E13A",
    "group_label": 1
  },
  {
    "variant_string": "P23H",
    "group_label": 1
  },
  {
    "variant_string": "Y2V",
    "group_label": 1
  }
]

The origin of these recorded values is the supplement of paper PMC10567573.
